# Tested on: S. cerevisiae SKN7-toxicity growth rescue, plate reader
# assay-summary: Yeast SKN7 toxicity growth rescue counterscreen, Saccharomyces cerevisiae, plate reader, dose confirmatory (AID 624258);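 further: growth read after three days of incubation at 30 °C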
Below is a list of entries, each paired with its recorded AC40 value.

Known AC40 results, listed for orientation:
smi	measurement-target	val
O=C1Cc2ccccc2C(=O)N1CCc1ccccc1	S. cerevisiae SKN7-toxicity growth rescue, plate reader	10500 nM
O=C(N/N=C(\c1ccccc1)c1cccnc1)c1cccc(F)c1	S. cerevisiae SKN7-toxicity growth rescue, plate reader	1120 nM
O=C(CSc1ccc(-c2ccccn2)nn1)c1ccccc1	S. cerevisiae SKN7-toxicity growth rescue, plate reader	1220 nM
CCOC(=O)N1CCN(S(=O)(=O)c2ccc(C(=O)NNc3nc4ccc(Cl)cc4s3)cc2)CC1	S. cerevisiae SKN7-toxicity growth rescue, plate reader	6890 nM
CN(C)c1ccc(-n2cccc2/C=C/[N+](=O)[O-])cc1	S. cerevisiae SKN7-toxicity growth rescue, plate reader	1160 nM

According to the records, this compound O=C(CSc1ccc(-c2ccccn2)nn1)NC1CCCC1 displays AC40 of 7770 nM

Measured AC40, O=C1C=C(c2ccccc2)C(=O)N1Nc1ccccc1 : 1150 nM

Entry Cc1ccc(-c2cc(-c3ccc(C)cc3)[n+](-c3ccccc3)c(-c3ccc(C)cc3)c2)cc1 , AC40 reported as 4130 nM

====

# System: S. cerevisiae SKN7-toxicity growth rescue, plate reader
# assay-summary: Yeast SKN7 toxicity growth rescue counterscreen, Saccharomyces cerevisiae, plate reader, dose confirmatory (AID 624258);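 further: growth read after three days of incubation at 30 °C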
Activity calls are given as the source filed them. The rule behind the calls is not given here.
Your response should consist of one outcome taken from t (active), f (inactive)

Here's what some known entries look like.
compound	category
CC(C)(C)c1ccc(Oc2ccc(N)cc2)cc1	t
Clc1ccc(OCc2nc(-c3ccncc3)no2)c(Br)c1	t
COc1ccc(N=NC2=C(O)CC(C)(C)CC2=O)c(OC)c1	t
CCOC(=O)c1c(-c2ccccc2)oc2ccc(O)cc12	t
O=C(NCC1CC1(Cl)Cl)Nc1ccc(Cl)c(Cl)c1 (stereo not drawn)	f
CC(C)(C)c1cc(-c2nc(N)nc(N)n2)c(O)c(C(C)(C)C)c1	t
O=C(CSc1ccc(-c2ccccn2)nn1)NCc1ccccc1	t
CC(C)(C)n1nc(-c2ccc(F)cc2)c2c(N)ncnc21	t
Cc1nn2c(-c3ccncc3)nnc2c2ccccc12	f
CC(C)(C)c1ccc(Cn2ccc(-c3ccc4c(c3)OCO4)n2)cc1	t

Q: Test call, this compound: COc1ccc2c(c1)OC[C@H]1[C@H]2N2C(=O)c3cc(Cl)ccc3NC(=O)[C@@]2(C)[C@H]1c1ccccc1
Result: t

Q: Short answer needed: outcome of this test for COc1ccc(CNC(=O)c2c(C)oc3c2C(=O)c2ccccc2C3=O)cc1 ?
Result: t

Q: Hi, do you know how CCCCCCCCCCOC(=O)Cn1c(COc2ccccc2)[n+](C)c2ccccc21 came out in this test?
Result: t

====

# System: S. cerevisiae SKN7-toxicity growth rescue, plate reader
# assay-summary: Yeast SKN7 toxicity growth rescue counterscreen, Saccharomyces cerevisiae, plate reader, dose confirmatory (AID 624258);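 further: growth read after three days of incubation at 30 °C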
The source made the active and inactive calls. How the calls were made is not given here.
Pick one: active, inactive

Study these solved cases before continuing.
compound	category
Cc1ccc(CCNc2ncnc(Cl)c2N)cc1	active
NNC(=O)c1ccc2nc(-c3ccc(Br)cc3)cn2c1	active
Cc1cc(/C=C2\SC(=S)NC2=O)c(C)n1-c1cccc(O)c1	active
O=C(Nc1ccc(Cl)c(Cl)c1)C1CCCCC1	active
CC1CC(C)CC(C)C(O)C(C#N)=CC=CCC(C2CCCC2C(=O)O)OC(=O)CC(O)C(C)C1 (configuration not stated)	active
COc1ccc2c(c1)OC[C@H]1[C@H]2N2C(=O)c3cc(OC)ccc3NC(=O)[C@@]2(C)[C@H]1c1ccccc1	active

Q: Write down the call the test reported for this compound. Item: COC(=O)c1ccc(N2C(=O)CC(N(C)CCc3ccc(OC)c(OC)c3)C2=O)cc1 (configuration not stated)
Result: active

Q: Hi, sorry to bother you, what did the test record for O=C(CCCNC(=O)c1ccc(Cl)cc1)OCc1cccc(Br)c1 ?
Result: inactive

Q: Query: recorded result category for CCc1nc2ccccc2c(=O)n1NC(=O)c1c(O)c2ccccc2n(CC)c1=O in this test
Result: active

Q: Recorded test outcome, item Clc1cccc(-c2noc3ncnc(Nc4ccc5c(c4)OCO5)c23)c1
Result: active

Q: Outcome logged for O=S(=O)(CCSc1nc2ccccc2s1)c1nc2ccccc2s1 in this assay:
Result: active

Q: Give the logged outcome of this assay for the following compound: O=C(C1=C(Nc2ccccc2)c2ccccc2S(=O)(=O)N1)c1ccccc1
Result: active

Q: # fetch the recorded call for COc1ccc(/C=C(\C#N)c2c[nH]c3ccccc23)cc1 here
Result: active

// data source = PubChem BioAssay AID624258
